Source: PubChem BioAssay AID2810

# reported percent response (vesicle binding); entries follow
- ASSAY NAME: modulators of CD8 T cell-vesicle binding, confirmation, cherry-picked primary hits, two concentrations (AID 2810);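 further: ratio of mean FL2 vesicle stain of CD8+ cells to that row's control; lower values mean blocking of vesicle binding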
- EXPERIMENTAL CONDITIONS: 2C CD8+ T cell-vesicle binding, flow cytometry; at 15.4 µM; active compounds read low
Screen size: about 1,200 compounds; about 65 (5%) were called active. The sample as a whole holds a higher share of actives than the screen did.
Please state the figure in %; there is no need to write the unit.

>  <COMPOUND>
Cc1ncc([N+](=O)[O-])n1Cc1cccc(F)c1

>  <percent response (vesicle binding), %>
118

$$$$
>  <COMPOUND>
COc1ccc([C@H]2CC(=O)C=C(c3c(C)cc(C)cc3C)C2)cc1

>  <percent response (vesicle binding), %>
49.9

$$$$
>  <COMPOUND>
CCc1c(O)cc2n(c1=O)-c1ccccc1C2(C)C

>  <percent response (vesicle binding), %>
444

$$$$
>  <COMPOUND>
Cc1noc(C)c1C(=O)OC(C)C(=O)N1CCc2ccccc21 (stereo not given)

>  <percent response (vesicle binding), %>
134

$$$$
>  <COMPOUND>
CCCCn1c(-c2ccccc2)nnc1-c1ccccc1

>  <percent response (vesicle binding), %>
150

$$$$

Query: Item O=C(NCCC1=CCCCC1)C(=O)NCC(c1ccco1)N1CCN(c2ccccc2F)CC1 (stereo not given) has what recorded percent response (vesicle binding)?
Response: 201

Query: State the recorded percent response (vesicle binding) for this entry: COC(=O)[C@]1(C)N[C@H](CN(C)S(=O)(=O)c2ccc(OC(F)(F)F)cc2)[C@@H]2C(=O)N(C)C(=O)[C@@H]21
Response: 907

Query: Which percent response (vesicle binding) value belongs to O=C(NC(=S)Nc1nc(-c2ccccc2)cs1)c1cccs1 ?
Response: 48.9

Query: Which percent response (vesicle binding) reading was recorded for the compound CCCC(=O)N1CCc2cc(OC)c(OC)cc2C1COc1ccccc1OC (stereo not given) ?
Response: 128

Query: Please give the measured percent response (vesicle binding) for this compound: CSCCC(NC(=O)c1ccc(=O)n(C)n1)c1nc2ccccc2[nH]1 (stereo not given)
Response: 42

Query: Reported percent response (vesicle binding) for Cc1ccccc1N=C1SC(CC(=O)Nc2ccc3ccccc3c2)C(=O)N1Cc1ccccn1 (stereo not given) : what is it?
Response: 157

Query: What does the data say about its percent response (vesicle binding)? Entry: COc1cc(Cl)c(S(=O)(=O)n2cnc(C)c2)cc1Cl
Response: 141

Query: Give the measured percent response (vesicle binding) of Cc1cccc(C(=O)OCC(=O)Nc2ccc3c(c2)OCCO3)c1O .
Response: 717

Query: Entry O=C1N=C(N2CCOCC2)S/C1=C\c1cccs1 : reported percent response (vesicle binding) = ?
Response: 248

Query: Record request: percent response (vesicle binding) value, item COc1ccc([N+](=O)[O-])cc1NC(=O)C(C)Sc1nc(-c2ccccc2)cs1 (stereo not given)
Response: 114

Query: Any idea what its percent response (vesicle binding) is? The compound is CC1(C)Cc2c(C#N)c(NC3CCCCC3)nc(-c3ccco3)c2CO1
Response: 33.8

Query: Quick one: percent response (vesicle binding) of CC(=O)Nc1ccccc1OC(C)C(=O)NC(C)c1ccc(F)cc1 (stereo not given) ?
Response: 114

Query: Given the compound Cc1ccc(CONC(=O)c2cccc([N+](=O)[O-])c2)cc1 , what is its reported percent response (vesicle binding)?
Response: 328

Query: Item under review: CCOC(=O)CSc1nnnn1-c1cc(OC)c(Cl)cc1OC . Reported percent response (vesicle binding)?
Response: 53.3

Query: Can you look up the measured percent response (vesicle binding) of CCCCN(C(=O)COC(=O)c1ccc(C=O)cc1)c1c(N)n(CCC)c(=O)[nH]c1=O for me?
Response: 406
